# protocol_description: Plasma pharmacokinetics, QD and BID cohorts (non-compartmental)
# Type: in vivo, human
# condition_label: human, plasma, oral, 200 mg, 200 mg BID, C1D21, mean, n=2, plasma; read-out: AUC0–12
measurement_name: AUC (ng·h/mL)
Give the number; ng·h/mL is assumed, so skip it.

Could you tell me which AUC is on file for Nc1ncc(-c2cnn(C3CCNCC3)c2)cc1-c1nnc(CC2CC2)o1 [SLC-391] ?
8550

====

# protocol_description: Plasma pharmacokinetics, QD and BID cohorts (non-compartmental)
# Assay type: in vivo, human
# condition_label: human, plasma, oral, 100 mg, QD; C1D21; plasma; read-out: AUC0–last, Median
measurement_name: AUC(0-t) (ng·h/mL)
Give the number; ng·h/mL is assumed, so skip it.

Could you tell me which AUC(0-t) is on file for "Nc1ncc(-c2cnn(C3CCNCC3)c2)cc1-c1nnc(CC2CC2)o1" ?
1800
